The reported measurements were obtained from patent US9428459B2.

Assay: log P by HPLC on reversed phase columns (EEC directive 79/831 Annex V.A8)
Type: physicochemical
Conditions: method [a]: LC-MS at pH 2.7, 0.1% formic acid in water / acetonitrile, gradient 10% to 95% acetonitrile

{"molecule": "CCON=C1CCCc2c(NC(=O)c3cccnc3C(F)F)cccc21", "logP": "2.90^[a]"}
{"molecule": "CC(C)C1CCCc2c(NC(=O)c3ccc(Cl)nc3C(F)F)cccc21 (stereo not drawn)", "logP": "4.31^[a]"}
{"molecule": "C=C1c2cccc(NC(=O)c3cccnc3C(F)F)c2CCC1(C)C", "logP": "3.33^[a]"}
{"molecule": "Cc1cnc(C(F)F)c(C(=O)Nc2ccc(F)c3c2CCCC3(C)C)c1", "logP": "3.57^[a]"}
{"molecule": "CC1CCC(C)(C)c2cccc(NC(=O)c3cccnc3C(F)F)c21 (stereo not drawn)", "logP": "3.37^[a]"}
{"molecule": "CON=C1CCCc2c(NC(=O)c3cccnc3C(F)F)cccc21", "logP": "2.49^[a]"}
{"molecule": "CC1c2cccc(NC(=O)c3cccnc3C(F)F)c2CCC1(C)C (stereo not drawn)", "logP": "3.55^[a]"}
{"molecule": "CC1(C)CCc2c(cccc2NC(=O)c2cccnc2C(F)F)C1", "logP": "3.23^[a]"}
{"molecule": "Cc1cnc(C(F)F)c(C(=O)Nc2cccc3c2CCCC3(C)C)c1", "logP": "3.46^[a]"}
{"molecule": "CCON=C1CCCc2c(NC(=O)c3cc(C)cnc3C(F)F)cccc21", "logP": "3.19^[a]"}
{"molecule": "CON=C1CCCc2c(NC(=O)c3cc(C)cnc3C(F)F)cccc21", "logP": "2.75^[a]"}
{"molecule": "CC1(C)CCCc2c(NC(=O)c3ccc(Cl)nc3C(F)F)ccc(F)c21", "logP": "3.94^[a]"}

* * *

Assay: log P by HPLC on reversed phase columns (EEC directive 79/831 Annex V.A8)
Type: physicochemical
Conditions: reversed phase HPLC columns; method [a]: LC-MS at pH 2.7, 0.1% formic acid in water / acetonitrile, gradient 10% to 95% acetonitrile

{"molecule": "Cc1cnc(C(F)F)c(C(=S)Nc2cccc3c2CCC(C)(C)C3)c1 [Example 17]", "chromatographic logP": 3.94}
{"molecule": "Cc1cnc(C(F)F)c(C(=O)Nc2cccc3c2CCC(C)(C)C3)c1 [Example 7]", "chromatographic logP": 3.52}
{"molecule": "CC1(C)CCc2cccc(NC(=O)c3cccnc3C(F)F)c2C1 [Example 1]", "chromatographic logP": 3.23}

* * *

Assay: log P by HPLC on reversed phase columns (EEC directive 79/831 Annex V.A8)
Format: physicochemical
Settings: method [a]: LC-MS at pH 2.7, 0.1% formic acid in water / acetonitrile, gradient 10% to 95% acetonitrile
readout kind: logP

{"molecule": "CC1CCc2c(NC(=O)c3cccnc3C(F)F)cccc2C1C (mixture of isomers) [Example 6]", "value measured": "3.24^[a]"}
{"molecule": "CC(C)C1CCCc2c(NC(=O)c3cccnc3C(F)F)cccc21 (centres unmarked) [Example 18]", "value measured": "3.60^[a]"}
{"molecule": "CC1(C)CCCc2c(NC(=S)c3cccnc3C(F)F)ccc(F)c21 [Example 15]", "value measured": "3.79^[a]"}
{"molecule": "CC1(C)CCc2c(NC(=O)c3cccnc3C(F)F)cccc2C1=O [Example 5]", "value measured": "2.28^[a]"}
{"molecule": "CC1(C)CCCc2c(NC(=O)c3cccnc3C(F)F)ccc(F)c21 [Example 12]", "value measured": "3.29^[a]"}
